- assay explanation: protein stability index of a GFP-peptide fusion (yeast GPS) (PSI 1-4); higher = more stable; sorted into four equal gates, so the index is relative within each strain
- protocol conditions: ubr1∆
Would you please tag the item Satisfied when its protein stability index is 3 or above, and Not satisfied when it is below?

QRRCLHCGALNGVVKKA [RPO31]; Not satisfied
DGGYNAQLAKAKTELNE [SMC2]; Not satisfied
QREDKLKSHYYQTCKNS [SMC2]; Not satisfied
LNSNNSIIGNKNNNYTW [REC8]; Not satisfied
VIEEDYDDEQNTSAQHV [IRR1]; Satisfied
YFLRRQYILQIVSFIVN [YJL039C/NUP192]; Not satisfied
LYPDSSSFKKNLLKFIT [RPN3]; Not satisfied
GKGESVIFNDNVTETYS [SIR3]; Not satisfied
LASPEVKVHMDSETSDP [DIS3]; Satisfied
AGGEAGEAEAEKEEEEA [RPP1A]; Satisfied
KRQLIKERNQKFQLQNQ [YIL149C/MLP2]; Not satisfied
EKKPAAKKTSTSTDGKK [HTB1]; Satisfied
GQGYRKVGIWPYFDYIF [YJL039C/NUP192]; Not satisfied
FVRQAAMIALSMILIQQ [RPN2]; Not satisfied
ISYKKGAASNRTKFVRS [RPL36A]; Satisfied
MVLRNVMEYDVKFYEIF [SRB8]; Not satisfied
LEVANDLQLLYVESDED [IRR1]; Not satisfied
YQTKKFYDYIKERSIVV [REC8]; Not satisfied
ISKSLTFSQESGLMVIL [RRI2]; Not satisfied
LVIGIFKRDLLREKEDK [YJL039C/NUP192]; Not satisfied
KSDTVTSASQPFKFGKT [YOR098C/NUP1]; Not satisfied
PLKRAIWLIKCCYFIEW [SRB8]; Not satisfied
AAKTRSYNWGAKAKRRH [RPL37A]; Satisfied
TPAMIPYPGSPMHSIMP [DSN1]; Not satisfied
VIVPQIVLDEVRNKSYP [DIS3]; Not satisfied
KHLEDNTLLISGPFKVN [RPL6A]; Not satisfied
FKQAKERVMKNKVEENL [RPT2]; Satisfied
NESEKDQWLEEYKKHFP [UBP6]; Satisfied
SPIGFTNSPQISVTRQV [SMC2]; Not satisfied
KYLPHAILKLLENMPHP [PRP8]; Not satisfied
VKIMRDPAKSRTGPKAL [RPS3]; Satisfied
DRSKPVALTSFLGYKAG [RPL3]; Not satisfied
KREIQEALSEKPTREPT [RPC53]; Satisfied
SNGLLSIVLLLLSQFGI [YML103C/NUP188]; Not satisfied
SYHNGNLKGRPYTGWVD [FAS2]; Not satisfied
EDYAIVTKGGTVENPLR [PRP28]; Satisfied
